The measured values listed here are drawn from PubChem BioAssay.

Assay Method Text: RAM signaling pathway blockade in yeast – S. cerevisiae, Pdr1DBD-CYC8 efflux-inhibited sensitized strain, primary screen (AID 1298);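 also: 0% = DMSO untreated cells without growth and 100% = 10 µM 1-NA-PP1 full growth; higher means more yeast growth rescued from 5-FOA killing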
Reported Conditions: S. cerevisiae cbk1-as DSE1-URA3 strain, 5-FOA growth OD615, 2 d; at 50 µM; active compounds read high
Examples of compounds with documented RAM network inhibition follow.
Measurement Name: RAM network inhibition (%)

* CCCCn1c(C(C)NC(=O)COC)nc2ccccc21 (stereo not given) | 0.2
* COc1ccc(OC)c(NC(=O)Nc2nnc(N3CCC(C)CC3)s2)c1 | 2.27
* Cc1cccc(N=C2NC(=O)/C(=C3/C(=O)N(C)c4ccccc43)S2)c1C | 1.77
* CCOC(=O)C1C(=O)CC(C)(O)C(C(=O)OCC)C1/C=C/c1ccccc1 (stereo not given) | 7.42
* CCSCCOC(=O)C1=C(C)NC(=O)NC1c1ccc2c(c1)OCO2 (stereo not given) | 0.41
* CC1=C(C(N)=O)C(c2ccccc2)n2nc(-c3cccc(C)c3)nc2N1 (stereo not given) | 3.91
* COc1ccccc1NC1=NCC(=O)N1Cc1ccccc1 | 4.78
* CCc1ccc(Nc2cc(C)nc3nc(C)nn23)cc1 | 4.01
* O=C(Nc1cccc(Cl)c1Cl)c1ccncc1 | 4.88
* CCOC(=O)c1c(NC(=O)C2CCCN2S(=O)(=O)c2cccc3nsnc23)sc(C)c1C (stereo not given) | 7.77
* CCN(CC)C(=O)CSc1nnc(-c2ccccc2)n1N | -0.62
* CC1(C)CC(=O)C(C=Nc2ccccc2)=C(O)C1 | 1.59
* CC(=O)N(Cc1ccco1)C1(C(=O)NC2CCCCC2)CCCCC1 | 1.51
* Cc1ccc(N=Cc2c(O)n(C)c(=O)n(C)c2=O)nc1 | -0.87
* O=C(NCc1cccs1)c1cnc2sccn2c1=O | 0.36
* CCC(=O)Nc1sc2c(c1C#N)CC(C)(C)NC2(C)C | 0.46
* COc1cc(NC(=O)C2CC2)c(C(=O)O)cc1OC | -0.36
* NC(=O)c1ccsc1NC(=O)C1CC1 | 0.32
* O=C(Nc1nnc(-c2ccccc2)o1)Nc1ccccc1Cl | 4.83
* O=C1CC(c2ccc(S(=O)(=O)NCc3ccncc3)cc2)CN1 (stereo not given) | 1.15
* Cc1cccc(N(CC(=O)Nc2c(C)n(C)n(-c3ccccc3)c2=O)S(C)(=O)=O)c1C | 5.77
* Cn1c(NC(=O)c2cc(Br)ccc2Cl)cc(=O)n(C)c1=O | 1.23
* Cc1cc(SCC(=O)OCC(=O)N2CCN(C(=O)c3ccco3)CC2)c(C)cc1Br | 0.4
* O=C(NCCOC(=O)c1ccncc1)c1ccccc1 | 3.05
* Cc1ccc2c(CC(=O)O)coc2c1C | -1.19
